Test: self-splicing fitness, log relative to wild type (ln ratio); higher = more splicing; Tetrahymena group I intron in knt gene, E. coli kanamycin selection, DiMSum; sequences stand for … in CUCUCU…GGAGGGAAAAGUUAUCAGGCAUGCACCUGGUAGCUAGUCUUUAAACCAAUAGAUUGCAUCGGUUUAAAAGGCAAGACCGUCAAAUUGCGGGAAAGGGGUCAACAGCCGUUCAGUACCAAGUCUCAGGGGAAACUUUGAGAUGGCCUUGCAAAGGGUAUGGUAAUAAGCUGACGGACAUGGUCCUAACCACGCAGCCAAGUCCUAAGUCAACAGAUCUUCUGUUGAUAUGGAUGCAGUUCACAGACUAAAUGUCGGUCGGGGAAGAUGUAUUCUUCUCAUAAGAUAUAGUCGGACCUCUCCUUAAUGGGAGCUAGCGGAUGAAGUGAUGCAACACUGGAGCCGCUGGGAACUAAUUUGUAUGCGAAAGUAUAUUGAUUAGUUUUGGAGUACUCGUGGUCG;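 further: selection with 25 µg/mL kanamycin versus none on LB agar overnight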
Settings: 30 °C
Classification field: Fulfilled = self-splicing fitness (ln) at or over -3; Not fulfilled = self-splicing fitness (ln) under -3.

Solved cases below.
>>> label("AGUCAGCAAUAUUACGGGUA")
"Fulfilled"
>>> label("CGGUAGCAAUAUUACGUUUU")
"Not fulfilled"
>>> label("CGCCAGCAAUAUUACGGGUG")
"Not fulfilled"
>>> label("CUAUAGCAAUAUUACGGCGC")
"Fulfilled"
>>> label("GGGGAGCAAUAUUACGACGA")
"Fulfilled"

Is self-splicing fitness (ln) at least -3? Consider GGGAAGCAAUAUUACGGGGC
Fulfilled

What do you have for CAAUAGCAAUAUUACGUGAA ?
Not fulfilled

Reference for the values: the supplement of paper PMC7877785
